target: MK2 kinase (Homo sapiens, UniProt P49137); assay: bMK2 IMAP assay; conditions: IC50 values, IMAP fluorescence polarization; 100 μM ATP, 50 pM MK2, 100 nM TAMRA peptide substrate
Sequence (P49137 whole entry): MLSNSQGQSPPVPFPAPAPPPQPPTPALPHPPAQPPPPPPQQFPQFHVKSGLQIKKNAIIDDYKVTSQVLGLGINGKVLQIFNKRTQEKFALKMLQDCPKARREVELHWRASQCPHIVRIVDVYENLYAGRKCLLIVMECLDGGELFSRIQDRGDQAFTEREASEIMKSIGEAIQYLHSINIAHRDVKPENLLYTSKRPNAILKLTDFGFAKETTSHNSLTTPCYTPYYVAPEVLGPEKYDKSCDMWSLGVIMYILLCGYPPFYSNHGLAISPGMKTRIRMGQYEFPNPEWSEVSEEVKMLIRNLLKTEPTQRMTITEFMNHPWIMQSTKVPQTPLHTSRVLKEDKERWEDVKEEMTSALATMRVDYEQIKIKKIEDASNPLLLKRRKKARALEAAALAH
measuredProperty: IC50 (µM)
# unit: µM | format: bare number

Tell me its IC50 on MK2 kinase (Homo sapiens, UniProt P49137): O=C1c2oc(-c3ccc(Cl)cc3)cc2Cc2cc(N3CCNCC3)ccc2N1Cc1ccccc1-c1cccnc1 [Compound 5]
0.0383

---

Record form. Attribute: IC50. Fill in for each entry.
target: UniProtKB P49137; assay: bMK2 IMAP assay

Tell me its IC50 on UniProtKB P49137: `N#Cc1ccc(-c2cc3c(s2)C(=O)N(Cc2ccccn2)c2ccc(N4CCNCC4)cc2C3)cc1`
1000 to 10000 nM

Tell me its IC50 on UniProtKB P49137: `O=C1Nc2ccc(C3CCNCC3)cc2Cc2cc(-c3ccccc3)oc21`
100 to 1000 nM

Tell me its IC50 on UniProtKB P49137: `Nc1ccc(-c2ccccc2CN2C(=O)c3oc(-c4ccc(Cl)cc4)cc3Cc3cc(N4CCNCC4)ccc32)cn1`
10 to 100 nM

Tell me its IC50 on UniProtKB P49137: `O=C1c2oc(-c3ccccc3)cc2Cc2cc(C3CCNCC3)ccc2N1Cc1ccccc1-c1ccccc1`
1000 to 10000 nM

Tell me its IC50 on UniProtKB P49137: `N#Cc1ccc(-c2cc3c(s2)C(=O)N(Cc2ccccc2-c2cncnc2)c2ccc(N4CCNCC4)cc2C3)cc1`
100 to 1000 nM

Tell me its IC50 on UniProtKB P49137: `CN1CCN(c2ccc3c(c2)Cc2cc(-c4ccc(Cl)cc4)oc2C(=O)N3Cc2ccccc2-c2cccnc2)CC1`
10 to 100 nM

Tell me its IC50 on UniProtKB P49137: `O=C1c2oc(-c3ccc(Cl)cc3)cc2Cc2cc(C3CCNCC3)ccc2N1Cc1ccccc1-c1ccccc1`
100 to 1000 nM
